TARGET DESC: USP7 (Homo sapiens, UniProt Q93009)
Sequence (Q93009 whole entry): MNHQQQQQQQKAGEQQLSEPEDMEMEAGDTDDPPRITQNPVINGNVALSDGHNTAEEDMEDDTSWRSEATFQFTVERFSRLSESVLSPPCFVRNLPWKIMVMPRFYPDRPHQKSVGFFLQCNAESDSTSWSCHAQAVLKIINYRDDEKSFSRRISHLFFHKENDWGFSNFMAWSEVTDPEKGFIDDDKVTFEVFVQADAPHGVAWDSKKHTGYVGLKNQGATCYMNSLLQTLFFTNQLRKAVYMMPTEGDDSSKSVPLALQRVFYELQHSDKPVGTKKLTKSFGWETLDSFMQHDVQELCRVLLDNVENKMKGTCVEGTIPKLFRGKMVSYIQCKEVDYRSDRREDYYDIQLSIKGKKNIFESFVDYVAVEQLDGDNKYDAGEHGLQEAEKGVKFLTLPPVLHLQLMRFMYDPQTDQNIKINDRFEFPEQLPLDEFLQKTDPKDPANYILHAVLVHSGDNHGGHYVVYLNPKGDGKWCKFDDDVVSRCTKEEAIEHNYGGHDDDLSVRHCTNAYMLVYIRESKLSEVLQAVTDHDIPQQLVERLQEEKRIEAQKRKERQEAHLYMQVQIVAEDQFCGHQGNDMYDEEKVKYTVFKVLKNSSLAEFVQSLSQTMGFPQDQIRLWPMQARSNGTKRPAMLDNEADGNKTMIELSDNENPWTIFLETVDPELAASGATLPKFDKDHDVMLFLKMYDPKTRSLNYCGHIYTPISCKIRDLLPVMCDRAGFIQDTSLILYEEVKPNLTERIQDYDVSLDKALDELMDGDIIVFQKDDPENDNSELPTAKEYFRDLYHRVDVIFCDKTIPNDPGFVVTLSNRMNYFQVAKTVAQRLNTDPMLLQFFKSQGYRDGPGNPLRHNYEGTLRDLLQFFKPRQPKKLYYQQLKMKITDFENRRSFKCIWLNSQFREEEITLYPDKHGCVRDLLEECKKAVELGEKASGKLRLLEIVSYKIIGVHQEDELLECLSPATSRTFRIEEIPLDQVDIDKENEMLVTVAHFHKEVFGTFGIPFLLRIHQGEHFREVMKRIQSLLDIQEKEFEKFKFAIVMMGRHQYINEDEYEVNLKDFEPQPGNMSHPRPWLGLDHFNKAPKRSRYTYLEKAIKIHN
ASSAY PROCEDURE: Ub-PLA2 isopeptidase reporter assay, USP7
ASSAY SETUP: read-out: EC50, deubiquitylating activity against USP7; Ub-PLA2 reporter assay
READOUT KIND: EC50 (µM)

CC(=O)c1cc([N+](=O)[O-])c(Sc2cccc(Cl)c2Cl)s1 [P5091]	4.2

====

Test system: other DUBs or other families of cysteine proteases
ASSAY PROCEDURE: Ub-PLA2 / protease panel, selectivity
Assay type: biochemical
ASSAY SETUP: read-out: EC50, other DUBs or other families of cysteine proteases; Fig 1D
pEC50: −log10 of the molar value.
READOUT KIND: pEC50

CC(=O)c1cc([N+](=O)[O-])c(Sc2cccc(Cl)c2Cl)s1 [P5091]	< 4.00
